B1: WW domain-binding protein 4, residues 8 to 43; numbered along this chain, O75554 (parent)
chain: QPKKFCDYCKCWIADNRPSVEFHERGKNHKENVAKR

Variants of: B1
Test: abundance fitness (aPCA) (normalised: wild type 0, dead -1); higher = more abundant; growth selection in yeast, the domain comes from the species named
Details: Homo sapiens
# if value of abundance fitness reaches -0.3, tag yes (1); if it stays below, tag no (0)

Below, 5 variants whose answers are already recorded.
# mutation-label, class-label
data = [
    ("D15T", "yes (1)"),
    ("K10E", "yes (1)"),
    ("E24F", "yes (1)"),
    ("G26V", "yes (1)"),
    ("N16W", "yes (1)"),
]

Form field: abundance fitness at least -0.3? Entry: H29M no (0)

Evaluate N16S : abundance fitness at minimum -0.3? yes (1)

// inclusive: abundance fitness at least -0.3? input: G26R yes (1)

Evaluate D15C : abundance fitness at minimum -0.3? no (0)

Does H29S have a reported abundance fitness of at least -0.3? no (0)

Check the entry I13S : does abundance fitness equal or exceed -0.3? no (0)

I'd appreciate it if you could say whether A34L has abundance fitness at least equal to -0.3. yes (1)

The reported measurements were obtained from the Human Domainome abundance scans (Beltran et al. 2025).
